Data credit: paper PMC10892041

TARGET SYSTEM: SHP1 (Homo sapiens, UniProt P29350)
Sequence (P29350 whole entry): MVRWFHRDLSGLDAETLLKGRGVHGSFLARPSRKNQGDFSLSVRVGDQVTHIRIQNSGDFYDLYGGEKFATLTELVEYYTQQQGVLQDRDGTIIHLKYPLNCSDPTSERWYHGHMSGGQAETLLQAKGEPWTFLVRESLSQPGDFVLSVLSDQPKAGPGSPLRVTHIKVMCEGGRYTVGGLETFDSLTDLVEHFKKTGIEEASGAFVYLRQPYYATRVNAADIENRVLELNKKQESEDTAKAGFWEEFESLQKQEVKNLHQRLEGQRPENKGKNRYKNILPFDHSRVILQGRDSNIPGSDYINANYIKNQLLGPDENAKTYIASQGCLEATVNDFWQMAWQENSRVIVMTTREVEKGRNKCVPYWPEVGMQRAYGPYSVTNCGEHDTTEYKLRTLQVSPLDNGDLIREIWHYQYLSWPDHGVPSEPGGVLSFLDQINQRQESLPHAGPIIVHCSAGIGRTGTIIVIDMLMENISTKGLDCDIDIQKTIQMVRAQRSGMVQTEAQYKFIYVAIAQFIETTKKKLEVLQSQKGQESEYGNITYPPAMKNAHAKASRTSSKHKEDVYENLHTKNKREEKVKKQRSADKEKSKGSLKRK
RUN DESCRIPTION: Inhibition of human recombinant tyrosine phosphatase SHP1 (DiFMUP fluorescence)
The compounds listed here are annotated with their IC50.

{"columns": ["COMPOUND", "TARGET SYSTEM", "IC50 [nM]"],
 "data": [
  ["O=C(NN=Cc1cc(Br)ccc1[O-])c1ccc([N+](=O)[O-])cc1.O=[N+]([O-])c1ccc(C([O-])=NN=Cc2cc(Br)ccc2[O-])cc1.[V+3] [VC068, [V(L13)(HL13)]]", "SHP1 (Homo sapiens, UniProt P29350)", 517],
  ["[O]=[V]1[O]C(c2ccc(Cl)cc2)=NN=Cc2cc(Br)ccc2[O]1.c1cnc2c(c1)ccc1cccnc12 [VC050, [VO(L11)(phen)]]", "SHP1 (Homo sapiens, UniProt P29350)", 657],
  ["O=S(=O)([O-])[O-].[O]=[V+2] [VOSO4, reference compound]", "SHP1 (Homo sapiens, UniProt P29350)", 17],
  ["Cc1occc(=O)c1[O-].Cc1occc(=O)c1[O-].[O]=[V+2] [BMOV, bis(maltolato)oxidovanadium(IV), reference compound]", "SHP1 (Homo sapiens, UniProt P29350)", 14],
  ["CC(CC(=S)Nc1ccccc1)=NC(Cc1ccccc1)C(=O)[O][V](=[O])([Cl])[Cl] (centres unmarked) [VC059, [VOCl2(L2)]·0.5Et2O·1.5HCl]", "SHP1 (Homo sapiens, UniProt P29350)", 26]
]}

---

Inhibition of SHP2, percentage of inhibition of the control overview
TARGET SYSTEM: SHP2 (Homo sapiens, UniProt Q06124)
Construct: purchased Sigma-Aldrich
Sequence (Q06124 whole entry): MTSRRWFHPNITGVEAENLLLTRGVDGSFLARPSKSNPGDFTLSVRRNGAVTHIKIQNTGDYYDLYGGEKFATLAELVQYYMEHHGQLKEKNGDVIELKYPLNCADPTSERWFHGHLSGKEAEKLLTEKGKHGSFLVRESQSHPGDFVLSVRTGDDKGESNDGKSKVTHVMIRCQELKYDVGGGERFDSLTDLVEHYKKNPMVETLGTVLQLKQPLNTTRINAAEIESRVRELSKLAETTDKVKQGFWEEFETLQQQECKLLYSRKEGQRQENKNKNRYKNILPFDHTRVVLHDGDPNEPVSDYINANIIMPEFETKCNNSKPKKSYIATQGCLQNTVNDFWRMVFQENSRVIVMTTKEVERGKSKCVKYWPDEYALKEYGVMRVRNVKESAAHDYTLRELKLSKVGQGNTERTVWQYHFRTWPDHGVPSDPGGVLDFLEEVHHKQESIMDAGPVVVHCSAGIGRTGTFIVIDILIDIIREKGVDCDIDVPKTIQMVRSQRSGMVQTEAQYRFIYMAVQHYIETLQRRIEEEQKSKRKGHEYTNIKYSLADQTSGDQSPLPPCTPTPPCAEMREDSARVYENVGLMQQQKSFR
RUN DESCRIPTION: Inhibition of human recombinant tyrosine phosphatase SHP2 (DiFMUP fluorescence)
Assay type: biochemical
PARTICULARS: 1 µM; control solvent only; SD did not exceed 6%
QUANTITY MEASURED: Inhibition of SHP2, percentage of inhibition of the control (%)

{"columns": ["COMPOUND", "VALUE UNITS", "NUMERIC READOUT"],
 "data": [
  ["O.O=C(NN=Cc1cc(Br)ccc1[O][V]1[O]C(c2ccccc2)=NN=Cc2cc(Br)ccc2[O]1)c1ccccc1 [VC032, [V(L8)(HL8)]⋅H2O]", "%", 48],
  ["CC(C)(C)c1ccc(C2=NN=Cc3cc(Br)ccc3[O][V](=[O])[O]2)cc1.O.c1cnc2c(c1)ccc1cccnc12 [VC048, [VO(L10)(phen)]⋅0.5H2O]", "%", 64],
  ["O=S(=O)([O-])[O-].[O]=[V+2] [VOSO4, reference compound]", "%", 77],
  ["CCC(C)C(N=C(C)CC(=S)Nc1ccccc1)C(=O)[O][V](=[O])([Cl])[Cl] (racemic) [VC109, [VOCl2(L5)]·3HCl]", "%", 83]
]}

---

TARGET SYSTEM: PTP1B (Homo sapiens, UniProt P18031)
Construct: purchased Sigma-Aldrich
Sequence (P18031 whole entry): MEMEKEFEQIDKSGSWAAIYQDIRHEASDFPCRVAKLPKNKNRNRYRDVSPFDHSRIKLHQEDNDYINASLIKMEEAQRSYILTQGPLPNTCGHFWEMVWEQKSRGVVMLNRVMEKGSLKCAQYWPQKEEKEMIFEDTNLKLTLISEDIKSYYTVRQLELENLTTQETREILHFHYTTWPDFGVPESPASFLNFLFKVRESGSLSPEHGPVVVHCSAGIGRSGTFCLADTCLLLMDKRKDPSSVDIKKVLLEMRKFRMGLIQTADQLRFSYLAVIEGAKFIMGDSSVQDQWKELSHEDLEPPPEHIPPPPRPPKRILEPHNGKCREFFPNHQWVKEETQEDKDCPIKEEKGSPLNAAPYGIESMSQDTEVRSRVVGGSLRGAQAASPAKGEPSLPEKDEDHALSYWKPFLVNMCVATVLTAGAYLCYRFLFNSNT
RUN DESCRIPTION: Inhibition of human recombinant tyrosine phosphatase PTP1B (DiFMUP fluorescence)
Type: biochemical
PARTICULARS: logarithm of IC50

{"columns": ["COMPOUND", "Log IC50 ± SD PTP1B"],
 "data": [
  ["O=S(=O)([O-])[O-].[O]=[V+2] [VOSO4, reference compound]", "−7.00"],
  ["O=C(NN=Cc1cc(Br)ccc1[O-])c1ccc([N+](=O)[O-])cc1.O=[N+]([O-])c1ccc(C([O-])=NN=Cc2cc(Br)ccc2[O-])cc1.[V+3] [VC068, [V(L13)(HL13)]]", "−5.69"],
  ["[O]=[V]1[O]C(c2ccc(Cl)cc2)=NN=Cc2cc(Br)ccc2[O]1.c1cnc2c(c1)ccc1cccnc12 [VC050, [VO(L11)(phen)]]", "−5.37"],
  ["Cc1occc(=O)c1[O-].Cc1occc(=O)c1[O-].[O]=[V+2] [BMOV, bis(maltolato)oxidovanadium(IV), reference compound]", "−6.83"],
  ["CC(CC(=S)Nc1ccccc1)=NC(Cc1c[nH]c2ccccc12)C(=O)[O][V](=[O])([Cl])[Cl] (stereo not drawn) [VC054, [VOCl2(L1)]·1.5Et2O ·6.5HCl]", "−6.85"],
  ["CC(CC(=S)Nc1ccccc1)=NC(Cc1ccccc1)C(=O)[O][V](=[O])([Cl])[Cl] (stereo not drawn) [VC059, [VOCl2(L2)]·0.5Et2O·1.5HCl]", "−6.97"]
]}
